- Test system: Renilla luciferase RNA
- ASSAY TEXT: Barcoded aptazyme variant library screen: un-cleaved Renilla luciferase RNA by barcode read counts, HEK293-T cells
- Format: cell-based
- TEST SETTINGS: un-cleaved Renilla luciferase RNA by barcode read counts; with 1 mM theophylline (ON) over without theophylline (OFF); HEK293-T cells; triplicate
OUTCOME MEASURE: Fold change in RNA expression between the ON state and the OFF state

Query: Look up Fold change in RNA expression between the ON state and the OFF state of RA427 (nucleic acid, expressed or natural sequence) DNA: GCGCGTCCTGCCGGAATACCAGCATCGTCTTGATGCCCTTGGAAGTCCGGGATTCGCGGAAACGCGTACATCCAGCTGACGAGTCCCAAATAGGACGAAACGCGC and report it.
Reply: 0.6

Query: Look up Fold change in RNA expression between the ON state and the OFF state of RA352 (nucleic acid, expressed or natural sequence) DNA: GCGCGTCCTGGATTCGCGGAAACGCGTACATCCAGCTGACGAGTCCCAAATAGGACGAAACGCGCGAGAATACCAGCATCGTCTTGATGCCCTTGGAAGTCTCGC and report it.
Reply: 0.9
